target: T1, human MSLN on OVCAR3 tumor cells (human, UniProt Q13421 296-598); assay: FACS, OVCAR3 cells
T1 construct: whole, on cells; also called human MSLN protein
T1 sequence (Q13421 other isoform, or with tags, fused parts or gaps): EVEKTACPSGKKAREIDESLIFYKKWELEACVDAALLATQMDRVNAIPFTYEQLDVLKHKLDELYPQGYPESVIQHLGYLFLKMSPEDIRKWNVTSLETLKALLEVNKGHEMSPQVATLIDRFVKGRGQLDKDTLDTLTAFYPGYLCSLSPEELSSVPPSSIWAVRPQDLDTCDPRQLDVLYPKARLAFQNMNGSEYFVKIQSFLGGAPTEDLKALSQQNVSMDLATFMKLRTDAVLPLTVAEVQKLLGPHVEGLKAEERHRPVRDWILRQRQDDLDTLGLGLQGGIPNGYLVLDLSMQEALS
MEASURED ATTRIBUTE: EC50 (nM)
Answer format: numeric, nM implied, no suffix.

F2.23.12-H4 (scFv, not shown: small tags and cut ends, also called S009-F2.23.12 humanized antibody VH1 + VL4) scFv: EVQLVQSGAEVKKPGASVKVSCKASGYTFTNYWMHWVRQAPGQGLEWMGNINPSNGGPYYNERFRSRVTMTVDKSTSTVYMELSSLRSEDTAVYYCARPYYGSSYGYFDYWGQGTTVTVSSGGGGSGGGGSGGGGSDIQMTQSPSSLSASVGDRVTITCKASQDINKYIAWYQHKPGKAPKLLIHYTSELQPGVPSRFSGSGSGRDYTFTISSLQPEDIATYYCLQYANPLRTFGGGTKVEIK; 9.9
F2.39.3-H8 (scFv, not shown: small tags and cut ends, also called S009-F2.39.3 humanized antibody VH2 + VL4) scFv: EVQLVQSGAEVKKPGASVKVSCKASGYTFTNYWMHWVRQAPGQGLEWMGNINPSSGDSYYNERFMSRVTMTVDKSTSTAYMELSSLRSEDTAVYYCARSGGLWLAFWGQGTLVTVSSGGGGSGGGGSGGGGSDIVMTQTPLSLSVTPGQPASISCKSSQTLLNSVSQNNYLAWYQQKPGQSPTLLVYFASTRESGVPDRFSGSGSGTDFTLKISRVEAEDVGVYYCQQHYRTPYTFGGGTKVEIK; 18.6
F2.23.12-H13 (scFv, not shown: small tags and cut ends, also called S009-F2.23.12 humanized antibody VH4 + VL1) scFv: EVQLVQSGAEVKKPGASVKVSCKASGYTFTNYWMHWVRQAPGQGLEWMGNINPSQGGPYYNERFRSRVTMTVDKSTSTAYMELSSLRSEDTAVYYCARPYYGSSYGYFDYWGQGTTVTVSSGGGGSGGGGSGGGGSDIQMTQSPSSLSASVGDRVTITCKASQDINKYIAWYQQKPGKAPKLLIHYTSELQPGVPSRFSGSGSGTDFTFTISSLQPEDIATYYCLQYANPLRTFGGGTKVEIK; 38.6

Please look up its EC50: F2.39.3-H2 (scFv, not shown: small tags and cut ends, also called S009-F2.39.3 humanized antibody VH1 + VL2) scFv: EVQLVQSGAEVKKPGASVKVSCKASGYTFTNYWMHWVRQAPGQGLEWMGNINPSSGDSYYNERFMSRVTMTVDKSTSTVYMELSSLRSEDTAVYYCARSGGLWLAFWGQGTLVTVSSGGGGSGGGGSGGGGSDIVMTQSPDSLAVSLGERATINCKSSQTLLNSVSQNNYLAWYQQKPGQSPTLLIYFASTRESGVPDRFSGSGSGTDFTLTISSLQAEDVAVYYCQQHYRTPYTFGGGTKVEIK
54

Also need F2.39.3-H6 (scFv, not shown: small tags and cut ends, also called S009-F2.39.3 humanized antibody VH2 + VL2) scFv: EVQLVQSGAEVKKPGASVKVSCKASGYTFTNYWMHWVRQAPGQGLEWMGNINPSSGDSYYNERFMSRVTMTVDKSTSTAYMELSSLRSEDTAVYYCARSGGLWLAFWGQGTLVTVSSGGGGSGGGGSGGGGSDIVMTQSPDSLAVSLGERATINCKSSQTLLNSVSQNNYLAWYQQKPGQSPTLLIYFASTRESGVPDRFSGSGSGTDFTLTISSLQAEDVAVYYCQQHYRTPYTFGGGTKVEIK , thanks.
40.3

Also need F2.23.12-H1 (scFv, not shown: small tags and cut ends, also called S009-F2.23.12 humanized antibody VH1 + VL1) scFv: EVQLVQSGAEVKKPGASVKVSCKASGYTFTNYWMHWVRQAPGQGLEWMGNINPSNGGPYYNERFRSRVTMTVDKSTSTVYMELSSLRSEDTAVYYCARPYYGSSYGYFDYWGQGTTVTVSSGGGGSGGGGSGGGGSDIQMTQSPSSLSASVGDRVTITCKASQDINKYIAWYQQKPGKAPKLLIHYTSELQPGVPSRFSGSGSGTDFTFTISSLQPEDIATYYCLQYANPLRTFGGGTKVEIK , thanks.
9.56

Also need F2.23.12-H5 (scFv, not shown: small tags and cut ends, also called S009-F2.23.12 humanized antibody VH2 + VL1) scFv: EVQLVQSGAEVKKPGASVKVSCKASGYTFTNYWMHWVRQAPGQGLEWMGNINPSNGGPYYNERFRSRVTMTVDKSTSTAYMELSSLRSEDTAVYYCARPYYGSSYGYFDYWGQGTTVTVSSGGGGSGGGGSGGGGSDIQMTQSPSSLSASVGDRVTITCKASQDINKYIAWYQQKPGKAPKLLIHYTSELQPGVPSRFSGSGSGTDFTFTISSLQPEDIATYYCLQYANPLRTFGGGTKVEIK , thanks.
11.3

Also need F2.23.12-H16 (scFv, not shown: small tags and cut ends, also called S009-F2.23.12 humanized antibody VH4 + VL4) scFv: EVQLVQSGAEVKKPGASVKVSCKASGYTFTNYWMHWVRQAPGQGLEWMGNINPSQGGPYYNERFRSRVTMTVDKSTSTAYMELSSLRSEDTAVYYCARPYYGSSYGYFDYWGQGTTVTVSSGGGGSGGGGSGGGGSDIQMTQSPSSLSASVGDRVTITCKASQDINKYIAWYQHKPGKAPKLLIHYTSELQPGVPSRFSGSGSGRDYTFTISSLQPEDIATYYCLQYANPLRTFGGGTKVEIK , thanks.
80.4

Also need F2.23.12-H8 (scFv, not shown: small tags and cut ends, also called S009-F2.23.12 humanized antibody VH2 + VL4) scFv: EVQLVQSGAEVKKPGASVKVSCKASGYTFTNYWMHWVRQAPGQGLEWMGNINPSNGGPYYNERFRSRVTMTVDKSTSTAYMELSSLRSEDTAVYYCARPYYGSSYGYFDYWGQGTTVTVSSGGGGSGGGGSGGGGSDIQMTQSPSSLSASVGDRVTITCKASQDINKYIAWYQHKPGKAPKLLIHYTSELQPGVPSRFSGSGSGRDYTFTISSLQPEDIATYYCLQYANPLRTFGGGTKVEIK , thanks.
14.5
